Let's look at some molecules and their measured logD.
Experiment summary: Partition coefficient (logD) (aqueous phase 0.1 N HCl)
Format: physicochemical
Protocol conditions: 0.1 N HCl (aqueous phase); read-out: logD
// return just the number, without any unit appended

Example molecules with recorded logD:
COc1cc(Cc2cnc(N)nc2N)cc(OC)c1N(C)C ... 1.51
COc1cc(Cc2cnc(N)nc2N)cc(OC)c1 ... 1.6
CCc1cc(Cc2cnc(N)nc2N)cc(CC)c1CC ... 1.55
COCCOc1cccc(Cc2cnc(N)nc2N)c1 ... -1.33

Which logD reading was recorded for the molecule `COc1ccc(Cc2cnc(N)nc2N)cc1OC` ?
1

Which logD reading was recorded for the molecule `Nc1ncc(Cc2ccc3c(c2)OCO3)c(N)n1` ?
1.52

Which logD reading was recorded for the molecule `COc1ccc(Cc2cnc(N)nc2N)cc1` ?
1.34

Which logD reading was recorded for the molecule `COc1cc(Cc2cnc(N)nc2N)cc(OC)c1SC` ?
1.6

Which logD reading was recorded for the molecule `CCOc1cc(Cc2cnc(N)nc2N)cc(OCC)c1` ?
2.52

Which logD reading was recorded for the molecule `COc1cc(Cc2cnc(N)nc2N)cc(OC)c1Br` ?
2.04

====

Experiment summary: Partition coefficient (logD) (aqueous phase 0.1 N HCl)
Format: physicochemical
Protocol conditions: 0.1 N HCl (aqueous phase); read-out: logD
Let's look at some molecules and their measured logD.

Example molecules with recorded logD:
CCCCCCCCOc1cc(Cc2cnc(N)nc2N)ccc1OC ... 2.55
Nc1ccc(Cc2cnc(N)nc2N)cc1 ... 0.26

Which logD reading was recorded for the molecule `COCCOc1c(OC)cc(Cc2cnc(N)nc2N)cc1OC` ?
-1.81

Which logD reading was recorded for the molecule `C=C(C)c1c(OC)cc(Cc2cnc(N)nc2N)cc1OC` ?
3.07
